assayTarget: MER Proto-Oncogene tyrosine kinase (MERTK) (Homo sapiens)
Construct: purchased Eurofins DiscoverX (KINOMEscan service)
Sequence (Q12866 21-999): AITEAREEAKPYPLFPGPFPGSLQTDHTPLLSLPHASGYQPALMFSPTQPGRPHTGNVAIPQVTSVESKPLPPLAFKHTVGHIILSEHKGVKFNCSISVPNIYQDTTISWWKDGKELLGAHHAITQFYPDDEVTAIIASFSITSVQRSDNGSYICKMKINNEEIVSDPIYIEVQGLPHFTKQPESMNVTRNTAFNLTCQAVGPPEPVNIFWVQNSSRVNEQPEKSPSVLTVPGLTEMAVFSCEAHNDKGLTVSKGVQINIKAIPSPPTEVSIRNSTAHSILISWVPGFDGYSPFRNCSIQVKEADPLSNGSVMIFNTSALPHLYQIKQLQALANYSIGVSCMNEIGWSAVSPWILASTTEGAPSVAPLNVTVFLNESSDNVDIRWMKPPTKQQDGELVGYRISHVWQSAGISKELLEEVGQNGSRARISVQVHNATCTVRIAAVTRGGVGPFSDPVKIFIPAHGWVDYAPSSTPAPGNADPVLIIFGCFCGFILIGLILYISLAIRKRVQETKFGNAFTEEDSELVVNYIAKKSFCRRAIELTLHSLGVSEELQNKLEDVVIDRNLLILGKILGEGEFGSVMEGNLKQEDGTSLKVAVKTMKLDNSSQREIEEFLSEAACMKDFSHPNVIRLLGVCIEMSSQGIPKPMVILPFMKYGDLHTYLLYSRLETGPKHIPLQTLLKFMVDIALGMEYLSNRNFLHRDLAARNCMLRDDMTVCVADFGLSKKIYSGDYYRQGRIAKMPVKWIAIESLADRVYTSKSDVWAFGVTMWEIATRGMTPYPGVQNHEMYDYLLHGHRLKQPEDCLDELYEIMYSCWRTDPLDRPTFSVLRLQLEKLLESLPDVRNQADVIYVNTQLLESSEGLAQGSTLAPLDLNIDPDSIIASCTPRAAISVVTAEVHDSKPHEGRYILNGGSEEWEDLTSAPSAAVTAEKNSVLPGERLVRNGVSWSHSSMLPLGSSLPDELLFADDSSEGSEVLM
experimentSummary: KINOMEscan competition binding assay (Eurofins DiscoverX), MERTK
experimentalReadout: Kd (nM)
# output: bare number, implied unit nM

Give a short answer stating reported Kd for `CN1CCN(Cc2ccc(NC(=O)c3cncc(C#Cc4cnc5ccc(N6C7CCC6COC7)nn45)c3)cc2C(F)(F)F)CC1` .
0.22
